biological target: GABA-A receptor; anion channel; assay: Inhibition of [3H]flunitrazepam binding to GABA-A benzodiazepine receptor of rat cerebral cortex; type: tissue-based
Entries and their measured pIC50 follow.
As a rule, pIC50 stands for the negative log10 of the concentration, concentration in M.

{"columns": ["Compound", "pIC50"],
 "data": [
  ["CCCCCn1ncc2c(N)c(C(=O)NCc3ccccc3)cnc21", 7.44],
  ["CCCCCn1ncc2c(N)c(C(=O)OCCC3CC3)c(C)nc21", 7.29]
]}

q: Could you tell me which pIC50 is on file for "CCCCCn1ncc2c(N)c(C(=O)NCCCC)cnc21" ?
a: 7.10

q: pIC50 lookup needed for "CCCCCn1ncc2c(N)c(C(=O)OCC)c(CC)nc21" , thanks.
a: 6.52

q: What value of pIC50 has been recorded for this entry: "C#CCCCn1ncc2c(N)c(C(=O)OCC)c(C)nc21"
a: 7.51

q: Requested field: pIC50. Item: "C#CCCCCn1ncc2c(N)c(C(=O)OCC=C)c(C)nc21"
a: 8.07

q: Can you look up the measured pIC50 of "C=CCOC(=O)c1c(C)nc2c(cnn2CC=C(C)C)c1N" for me?
a: 8.19

----------
biological target: GABA-A receptor; anion channel; test: Inhibition of [3H]flunitrazepam binding to GABA-A benzodiazepine receptor of rat cerebral cortex; assay type: tissue-based
Class assignment keyed on IC50, ranges bin A = under 60 nM, bin B = from 60 nM up to 300 nM, bin C = 300 nM and over

{"columns": ["Compound", "Label"],
 "data": [
  ["CCCCCn1ncc2c(N)c(C(=O)NC3CC3)cnc21", "bin C"]
]}

q: Which class is correct for the following compound? "C=CCOC(=O)c1c(C)nc2c(cnn2CCC(C)C)c1N"
a: bin A

q: Which bin should I file "CCCn1ncc2c(N)c(C(=O)OCC)c(C)nc21" under?
a: bin C

q: Class label required: "CCCCCn1ncc2c(N)c(C(=O)OCC)c(C)nc21"
a: bin A

q: Bin? "CCCCCn1ncc2c(N)c(C(=O)Nc3ccccc3)cnc21"
a: bin C

q: Classify this compound: "CC#CCCn1ncc2c(N)c(C(=O)NCCC)cnc21"
a: bin C

q: Hello team, could you let me know which band the following compound falls into: "CCCCCn1ncc2c(N)c(C(=O)NCC3CC3)cnc21"
a: bin A

q: Would you mind sorting "C#CCCCn1ncc2c(N)c(C(=O)OCC3CC3)c(C)nc21" into the appropriate category?
a: bin A

q: For the record "CCCCCn1ncc2c(N)c(C(=O)OCc3ccccc3)c(C)nc21" , report the class its IC50 corresponds to.
a: bin B

q: Returns: class label. Input: "C=CCOC(=O)c1c(C)nc2c(cnn2CC=C)c1N"
a: bin B

q: Just checking, what class would you give "CCOC(=O)c1c(C)nc2c(cnn2CCCC(C)(C)C)c1N" here?
a: bin C

----------
Each entry below carries its recorded inhibition.
molecular target: GABA-A receptor; anion channel (Rattus norvegicus) (UniProt O09028+P15431+P18506+P18508+P19969+P20236+P23574+P23576+P28471+P28473+P30191+P62813+P63079+P63138+Q91ZM7+Q9ES14); test: Displacement of [3H]flunitrazepam from GABA-A benzodiazepine receptor of rat cerebral cortex at 5000 nM; assay type: tissue-based
Report only the number, with the unit % understood.

// solved cases for inhibition follow
{"columns": ["Substance Smiles", "inhibition / %"],
 "data": [
  ["CCCCCn1ncc2c(N)c(C(=O)NCCCC)c(C)nc21", 31],
  ["CCCCCn1ncc2c(N)cc(C)nc21", 13],
  ["CCCCCn1ncc2c(N)c(C(=O)OC)c(C)nc21", 54]
]}

q: Any idea what inhibition was measured for "CCOC(=O)c1cc2cnn(CC)c2nc1C" ?
a: 14

q: Return reported inhibition; argument: "CCCCCn1ncc2c(N)c(C(=O)OC(C)C)c(C)nc21"
a: 48
